Biological target: Cyclin-dependent kinase 1/cyclin B1 (Homo sapiens)
Sequence (P06493 whole entry): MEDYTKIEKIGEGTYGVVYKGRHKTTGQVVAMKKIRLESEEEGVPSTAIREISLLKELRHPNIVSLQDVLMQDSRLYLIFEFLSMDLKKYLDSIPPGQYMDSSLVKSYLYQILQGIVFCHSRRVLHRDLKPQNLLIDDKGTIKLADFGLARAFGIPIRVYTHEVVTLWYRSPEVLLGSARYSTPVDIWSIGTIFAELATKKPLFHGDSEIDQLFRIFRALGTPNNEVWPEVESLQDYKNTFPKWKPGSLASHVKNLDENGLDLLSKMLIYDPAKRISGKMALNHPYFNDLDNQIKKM
Sequence (P14635 whole entry, further chain): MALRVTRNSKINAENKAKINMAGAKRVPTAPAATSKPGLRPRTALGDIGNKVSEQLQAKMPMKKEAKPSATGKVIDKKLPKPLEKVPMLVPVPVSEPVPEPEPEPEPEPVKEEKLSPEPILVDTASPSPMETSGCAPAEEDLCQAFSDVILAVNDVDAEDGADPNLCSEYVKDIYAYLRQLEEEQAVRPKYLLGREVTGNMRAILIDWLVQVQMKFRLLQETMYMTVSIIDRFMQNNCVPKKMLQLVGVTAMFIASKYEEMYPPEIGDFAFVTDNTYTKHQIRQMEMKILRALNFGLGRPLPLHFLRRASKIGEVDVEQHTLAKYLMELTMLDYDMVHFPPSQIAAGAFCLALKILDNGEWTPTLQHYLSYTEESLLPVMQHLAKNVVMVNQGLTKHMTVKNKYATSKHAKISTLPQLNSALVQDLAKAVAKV
Assay: Inhibition of CDK1/cyclin B1 (unknown origin) in presence of [32P]gammaATP by image analyser
readout.type: IC50 (µM)

- compound: "Cc1n[nH]c2cc(F)c3nc(-c4c[nH]nc4C(F)(F)F)c4c(c3c12)CCCC4"
  IC50 (µM): 0.14
- compound: "Fc1cc2[nH]ncc2c2c3c(c(-c4c[nH]nc4C(F)(F)F)nc12)C1CCC3C1 (stereo unspecified)"
  IC50 (µM): 0.072
- compound: "Cc1n[nH]c2ccc3nc(-c4c[nH]nc4C(F)(F)F)c4c(c3c12)CCCC4"
  IC50 (µM): 0.157

[a] Fc1cc2[nH]ncc2c2c3c(c(-c4cn[nH]c4)nc12)CCCC3
[b] Fc1cc2[nH]ncc2c2c3c(c(-c4c[nH]nc4C(F)(F)F)nc12)CCCC3
[c] OCc1n[nH]c2ccc3nc(-c4c[nH]nc4C(F)(F)F)c4c(c3c12)CCCC4
**Q:** Ordering: ascending IC50. Give the order by naming the labels one after another as requested.
**A:** b, a, c

---

Tested on: MV4-11
Experiment: cells
Details: Homo sapiens, MV4-11, 72 h
Description: Antiproliferative activity against human MV4-11 cells assessed as cell death measured after 72 hrs by resazurin dye based assay
pIC50: −log10 of the molar value.
readout.type: pIC50

Solved cases below.
- compound: "FC(F)(F)c1n[nH]cc1-c1nc2ccc3[nH]nnc3c2c2c1CCCC2"
  study.target: "MV4-11"
  pIC50: 6.40
- compound: "Nc1ccc(-c2nc3ccc4[nH]ncc4c3c3c2CCCC3)cc1C(F)(F)F"
  study.target: "MV4-11"
  pIC50: 5.53
- compound: "FC(F)(F)c1n[nH]cc1-c1cc(-c2ccncc2)c2c(ccc3[nH]ncc32)n1"
  study.target: "MV4-11"
  pIC50: 5.44
- compound: "OCc1n[nH]c2ccc3nc(-c4c[nH]nc4C(F)(F)F)c4c(c3c12)CCCC4"
  study.target: "MV4-11"
  pIC50: 7.52
- compound: "O=C(O)C1CCc2c(c(-c3c[nH]nc3C(F)(F)F)nc3ccc4[nH]ncc4c23)C1 (centres undefined)"
  study.target: "MV4-11"
  pIC50: 4.70
- compound: "Cn1cc(-c2nc3ccc4[nH]ncc4c3c3c2CCCC3)c(C(F)(F)F)n1"
  study.target: "MV4-11"
  pIC50: 6.30

[a] Fc1cc2[nH]ncc2c2c3c(c(-c4c[nH]nc4C(F)(F)F)nc12)CCCC3
[b] CC(C)c1n[nH]cc1-c1nc2ccc3[nH]ncc3c2c2c1CCCC2
**Q:** For the pair a and b , which member has the lower pIC50 number? Label of pick, please.
**A:** b

[P] FC(F)(F)c1n[nH]cc1-c1nc2ccc3[nH]ncc3c2c2c1CCCC2
[Q] FC(F)(F)c1n[nH]cc1-c1nc2c(C(F)(F)F)cc3[nH]ncc3c2c2c1CCCC2
**Q:** // pick min by pIC50: P , Q Pick one and reply with its label.
**A:** Q
(Q: 6.74, P: 7.15)

[P] FC(F)(F)c1n[nH]cc1-c1nc2c(N3CCCCC3)cc3[nH]ncc3c2c2c1CCCC2
[Q] CCOC(=O)C1CCc2c(c(-c3c[nH]nc3C(F)(F)F)nc3ccc4[nH]ncc4c23)C1 (centres undefined)
[R] FC(F)(F)c1n[nH]cc1-c1nc2ccc3[nH]nc(I)c3c2c2c1CCCC2
[S] CCc1c(C)c(-c2c[nH]nc2C(F)(F)F)nc2ccc3[nH]ncc3c12
[T] CCc1cnn2c(NCc3ccc[n+]([O-])c3)cc(N3CCCC[C@H]3CCO)nc12 [DINACICLIB]
**Q:** Put the entries in order of pIC50, starting with the largest number. A complete answer lists every label in the requested sequence.
**A:** T, Q, S, R, P
(T: 8.15, Q: 7.43, S: 7.08, R: 5.90, P: 5.62)

[a] FC(F)(F)c1n[nH]cc1-c1nc2ccc3[nH]nc(Cl)c3c2c2c1CCCC2
[b] Cc1n[nH]c2ccc3nc(-c4c[nH]nc4C(F)(F)F)c4c(c3c12)CCC(N)C4 (centres undefined)
**Q:** Kindly compare a with b and tell me which has the lower pIC50 figure. Your choice should be expressed through its label.
**A:** a
(a: 5.60, b: 6.50)

[I] FC(F)(F)c1n[nH]cc1-c1nc2c(Br)cc3[nH]ncc3c2c2c1CCCC2
[II] Cc1n[nH]c(C)c1-c1nc2ccc3[nH]ncc3c2c2c1CCCC2
**Q:** Which of the two items, I and II , has the greater recorded pIC50? Reply briefly: the label of your chosen item.
**A:** II
(II: 6.29, I: 4.44)

[P] FC(F)(F)c1n[nH]cc1-c1cc(C2CC2)c2c(ccc3[nH]ncc32)n1
[Q] FC(F)(F)c1n[nH]cc1-c1nc2ccc3[nH]nc(Br)c3c2c2c1CCCC2
**Q:** Looking only at measured pIC50, which entry is lower, P or Q ? Indicate your choice by writing its label.
**A:** P

[P] O=S1(=O)CCc2c(c(-c3c[nH]nc3C(F)(F)F)nc3ccc4[nH]ncc4c23)C1
[Q] Cn1ncc2c3c4c(c(-c5c[nH]nc5C(F)(F)F)nc3ccc21)CCCC4
[R] c1n[nH]cc1-c1nc2ccc3[nH]ncc3c2c2c1CCCC2
**Q:** Parameters: sort_field (pIC50), sort_dir (desc). Please respond with the labels ordered as the question requires.
**A:** R, P, Q
(R: 6.48, P: 6.12, Q: 5.62)

[1] CC(=O)NC1CCc2c(c(-c3c[nH]nc3C(F)(F)F)nc3ccc4[nH]ncc4c23)C1 (centres undefined)
[2] FC(F)(F)c1n[nH]cc1-c1nc2ccc3[nH]nc(Cl)c3c2c2c1CCCCC2
**Q:** Given the listed records, identify the one among 1 and 2 with higher pIC50. Mark your answer with the label of the selected entry.
**A:** 1
(1: 6.04, 2: 5.70)

---

Target: Receptor-type tyrosine-protein kinase FLT3 (Homo sapiens, UniProt P36888, D835V)
Test: Binding affinity to human partial length FLT3 ITD D835V mutant expressed in mammalian expression system by KdELECT Discover assay
readout.type: pKd
FYI, pKd means -log10 of a concentration in mol per litre.

So for Cc1n[nH]c2ccc3nc(-c4c[nH]nc4C(F)(F)F)c4c(c3c12)CCCC4 , the logged pKd turned out to be 9.14

---

System: K562
Assay: cells
Conditions: Homo sapiens, K562, 72 h
Description: Antiproliferative activity against human K562 cells assessed as cell death measured after 72 hrs by resazurin dye based assay
pIC50: −log10 of the molar value.
readout.type: pIC50

- compound: "Fc1cc2[nH]ncc2c2c3c(c(-c4c[nH]nc4C(F)(F)F)nc12)CCCC3"
  study.target: "K562"
  pIC50: 5.14

[I] c1n[nH]cc1-c1nc2ccc3[nH]ncc3c2c2c1CCCC2
[II] CN1CCN(C2CCc3c(c(-c4c[nH]nc4C(F)(F)F)nc4ccc5[nH]ncc5c34)C2)CC1 (stereo unspecified)
[III] Cc1n[nH]c2ccc3nc(-c4c[nH]nc4C(F)(F)F)c4c(c3c12)CCC(C#N)C4 (stereo unspecified)
[IV] FC(F)(F)c1n[nH]cc1-c1nc2ccc3[nH]nc(I)c3c2c2c1CCCC2
**Q:** // ascending sort on recorded pIC50 Provide your answer as the labels ordered per the instruction.
**A:** IV, II, III, I

---

Test system: K562
Assay: cells
Conditions: Homo sapiens, K562, 72 h
readout.type: IC50 (µM)

Solved cases (2 shown):
- smiles.representation: "FC(F)(F)c1n[nH]cc1-c1nc2ccc3[nH]nnc3c2c2c1CCCC2"
  IC50, µM: 87.8
- smiles.representation: "FC(F)(F)c1n[nH]cc1-c1cc(C2CC2)c2c(ccc3[nH]ncc32)n1"
  IC50, µM: 78.9

[A] CN1CCN(CC#Cc2n[nH]c3ccc4nc(-c5c[nH]nc5C(F)(F)F)c5c(c4c23)CCCC5)CC1
[B] Cc1n[nH]c(C)c1-c1nc2ccc3[nH]ncc3c2c2c1CCCC2
[C] CCc1cnn2c(NCc3ccc[n+]([O-])c3)cc(N3CCCC[C@H]3CCO)nc12
[D] CC(C)c1nn(C)cc1-c1nc2ccc3[nH]ncc3c2c2c1CCCC2
**Q:** With regard to IC50, arrange the entries in ascending order, please. Output spec: a listing of the labels in the requested order.
**A:** C, B, A, D

---

Target: Receptor-type tyrosine-protein kinase FLT3 (Homo sapiens, UniProt P36888, ITD)
readout.type: IC50 (nM)

- compound: "FC(F)(F)c1n[nH]cc1-c1nc2ccc3[nH]ncc3c2c2c1CC(C(F)(F)F)CC2 (stereo not given)"
  study.target: "Receptor-type tyrosine-protein kinase FLT3 (Homo sapiens, UniProt P36888, ITD)"
  unit.name: "nM"
  IC50: 126
- compound: "Nc1ccc(-c2nc3ccc4[nH]ncc4c3c3c2CCCC3)cc1C(F)(F)F"
  study.target: "Receptor-type tyrosine-protein kinase FLT3 (Homo sapiens, UniProt P36888, ITD)"
  unit.name: "nM"
  IC50: 3120
- compound: "Cn1cc(-c2nc3ccc4[nH]ncc4c3c3c2CCCC3)c(C(F)(F)F)n1"
  study.target: "Receptor-type tyrosine-protein kinase FLT3 (Homo sapiens, UniProt P36888, ITD)"
  unit.name: "nM"
  IC50: 549
- compound: "NC1CCc2c(c(-c3c[nH]nc3C(F)(F)F)nc3ccc4[nH]ncc4c23)C1 (stereo not given)"
  study.target: "Receptor-type tyrosine-protein kinase FLT3 (Homo sapiens, UniProt P36888, ITD)"
  unit.name: "nM"
  IC50: 3140
- compound: "CC(C)c1n[nH]cc1-c1nc2ccc3[nH]ncc3c2c2c1CCCC2"
  study.target: "Receptor-type tyrosine-protein kinase FLT3 (Homo sapiens, UniProt P36888, ITD)"
  unit.name: "nM"
  IC50: 212

[1] Cc1n[nH]c(C)c1-c1nc2ccc3[nH]ncc3c2c2c1CCCC2
[2] FC(F)(F)c1n[nH]cc1-c1nc2c(C(F)(F)F)cc3[nH]ncc3c2c2c1CCCC2
**Q:** I'm curious whether 1 or 2 has the smaller IC50 number. Which is it? Lab log: write the label of the selected item as the result.
**A:** 2
(2: 107 nM, 1: 194 nM)
